Reference source for all entries: patent US20220265709A1

target: His-tagged human BCMA (ACRO Biosystems, Cat. #: BCA-H522y) (human); test: SPR (BIAcore T200) affinity ranking; crude sdAb captured via tag, antigen at 100 nM
Sequence (Q02223 1-54): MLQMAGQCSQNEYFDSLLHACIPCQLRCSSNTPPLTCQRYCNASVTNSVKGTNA
pKd: −log10 of the molar value.

| Binder | pKd |
| --- | --- |
| anti-BCMA sdAb BCMA13 (VHH, part only, affinity tag) VHH: QVHLVESGGGSVQAGGSLRLSCKASGAIYDTNCMAWFRQTPGKEREGVATIDLGNPITYYADSVKGRFTISRDNAKNTMYLQMNSLKPEDTAMYYCAATSWWPCPANNVGYANWGQGTQVTVSS | 7.11 |
| anti-BCMA sdAb BCMA1 (VHH, part only, affinity tag) VHH: QVQLVESGGGSVQAGGSLRLSCKASGAIYDTNCMAWFRQTPGKEREGVATIDLGNPITYYADSVKGRFTISRDNAKNTMYLQMNSLEPEDTAMYYCAATSWWPCTTFNAGYANWGQGTQVTVSS | 8.00 |
| anti-BCMA sdAb BCMA10 (VHH, part only, affinity tag) VHH: QVQLAESGGGLVQPGGSLRLSCAGSGFTFSSYDMNWVRQAPGKGLERVSTTFNGDDGTNYADSVLGRFTASRDKAKNTLYLQMNSLKTEDTAVYYCAAAVPGVDWYDTTRYKYWGQGTQVTVSS | 7.33 |
| anti-BCMA sdAb BCMA7 (VHH, part only, affinity tag) VHH: QVHLMESGGGSVQSGGSLRLSCAASGYTYSSYCMAWFRQAPGKEREGVAAIASDGSTYYTDSVKGRFTISQDNAKNTLYLQMNSLKPEDTAMYYCGADPVGCSWPDYWGQGTQVTVSS | 7.34 |
| anti-BCMA sdAb BCMA11 (VHH, part only, affinity tag) VHH: QVQLVESGGGVVQPGGSLRLSCAASGFAFSNYAMTWGRQAPGQRLEWVSTIDSGGGSTTYSDSVKGRFTISRDNAKNTLYLQLNNLKSEDTAVYYCSENVDCNGDYCYRANYWGQGTQVTVSS | 7.28 |
